Assay: qHTS assay to identify small molecule antagonists of the retinoid acid receptor (RAR) signaling pathway - cell viability counter screen (AID 1159551); also: % is scaled to controls: 0 for no effect and ±100 for the full control effect; nearly all actives have a fitted effect of over 35% in size
Conditions: C3RL4 cells viability, ATP luminescence (CellTiter-Glo), 6 h; series mostly up to 92.4 µM
Records with an inconclusive call do not appear. The source made the active and inactive calls. Calls follow the shape of the dose curve; as a rule, active = well fitted cell-killing curve with a large enough effect in the repeat runs; inconclusive = weak or mixed curves, or effect the other way; inactive = flat fitted curve, though single readings scatter.
measured-parameter: activity change, negative = cytotoxicity

{"columns": ["compound", "measured-result"],
 "data": [
  ["S=c1nccc[nH]1", "inactive"],
  ["Clc1sc(Cl)c(Cl)c1Cl", "inactive"],
  ["O=C1CCc2ccc(OCCCCN3CCN(c4cccc(Cl)c4Cl)CC3)cc2N1", "inactive"],
  ["COC(=O)c1ccccc1OC", "inactive"],
  ["CCCCCc1ccc(Cl)cc1", "inactive"],
  ["O=C1c2ccccc2C(=O)N1SC1CCCCC1", "inactive"]
]}

Input: Quick one: activity change, negative = cytotoxicity for `Cc1cccc2cccnc12` ?
Output: inactive

Input: Field request: activity change, negative = cytotoxicity | item: OC1CCCc2ccccc21 (stereo not given)
Output: inactive

Input: Requested read-out: activity change, negative = cytotoxicity. Entry: Cc1cc(C(C#N)c2ccc(Cl)cc2)c(Cl)cc1NC(=O)c1cc(I)cc(I)c1O (stereo not given)
Output: inactive

Input: Find the recorded activity change, negative = cytotoxicity belonging to CC(=O)Oc1cc2c(s1)CCN(C(C(=O)C1CC1)c1ccccc1F)C2 (stereo not given) and report it.
Output: inactive

====

Molecular target: Voltage-gated inwardly rectifying potassium channel KCNH2 (Homo sapiens)
Experiment: Human Ether-a-go-go-Related Gene (hERG) channel small molecule antagonists: fluorescence cell-based qHTS assay (AID 1671200);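 also: hERG-expressing U2OS cells given a thallium stimulus after FluxOR II dye loading; % is scaled to controls: 0 for no effect and ±100 for the full control effect; nearly all actives have a fitted effect of over 50% in size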
Settings: hERG-U2OS cells, FluxOR thallium flux fluorescence; series mostly up to 76.8 µM
Excerpt: National Center for Advancing Translational Sciences [NCATS] U.S. Environmental Protection Agency [EPA] National Institutes of Environmental Health Sciences [NIEHS] National Toxicology Program [NTP] U.S. Food and Drug Administration [FDA] Mutations in the hERG channel cause Long QT (LQT) syndrome. LQT syndrome is a cardiac disorder which can cause ventricle arrhythmia and sudden death. Additionally, compounds which block the hERG channel can cause acquired LQT syndrome. […]
Records with an inconclusive call do not appear. Calls of active or inactive are those of the source. Calls come from the whole dose curve; as a rule, active = well fitted inhibition curve with a large enough effect in the repeat runs; inconclusive = weak or mixed curves; inactive = flat fitted curve, though single readings scatter.
measured-parameter: activity change, negative = inhibition

Completed entries (count: 3):
{"columns": ["compound", "study-system", "activity change, negative = inhibition"],
 "data": [
  ["COc1cc2nc(N3CCN(C(=O)c4ccco4)CC3)nc(N)c2cc1OC", "Voltage-gated inwardly rectifying potassium channel KCNH2 (Homo sapiens)", "-1.36% [at 15.8 µM] (inactive)"],
  ["CC(C)Cn1cnc2c(N)nc3ccccc3c21", "Voltage-gated inwardly rectifying potassium channel KCNH2 (Homo sapiens)", "-8.33% [at 15.8 µM] (inactive)"],
  ["O=C(O)O", "Voltage-gated inwardly rectifying potassium channel KCNH2 (Homo sapiens)", "0.334% [at 6.97 µM] (inactive)"]
]}

Input: # get_value(readout='activity change, negative = inhibition', item= `C[C@H]1NCc2cc(-c3ccc4c(=O)c(C(=O)O)cn(C5CC5)c4c3OC(F)F)ccc21` )
Output: -3.88% [at 15.8 µM] (inactive)

Input: Would you mind telling me what activity change, negative = inhibition value was observed for NC[C@H]1O[C@H](O[C@H]2[C@H](O[C@@H]3O[C@H](CO)[C@@H](O)[C@H]3O)C(O)[C@H](N)C[C@@H]2N)[C@H](N)[C@@H](O)[C@@H]1O (stereo not given in full) ?
Output: -0.219% [at 6.97 µM] (inactive)
